- systemName: Human LDHA (Homo sapiens (Human))
- experimentSummary: human LDHA primary biochemical assay
- measurementSetup: biochemical LDHA inhibitory activity, assay of Example 1; activity level classes defined in nM
- Protocol: This example describes a human LDHA primary biochemical assay employed in the characterization of a compound of formula (I) in an embodiment of the invention. Test compounds were placed in a Greiner Bio-One (Monroe, N.C.) 1536-well black solid bottom assay plate. 200 millimolar (mM) Tris HCl, pH 7.4, 100 micromolar (μM) EDTA and 0.01% TWEEN-20™, final concentration, was used as the assay buffer. […] The inhibition of LDHA activity was measured by fluorescence emission.
Below, each entry is listed alongside its reported IC50.

Here are 2 molecules together with their reported answers.
In [3]: df
Out[3]:
                                   molecule                         systemname  quantitykind  observedmeasurement
0  COc1ccc(-c2cccc(-c3nn(-c4nc(C(=O)O)cs4)c(CC4CC4)c3Cc3ccc(S(N)(=O)=O)c(F)c3)c2)cc1Cl [Compound 172]  Human LDHA (Homo sapiens (Human))          IC50       100 to 1000 nM
1  Cc1ccc(-c2cccc(-c3nn(-c4nc(C(=O)O)cs4)c(CC4CC4)c3Cc3ccc(S(N)(=O)=O)c(F)c3)c2)cc1 [Compound 198]  Human LDHA (Homo sapiens (Human))          IC50             < 100 nM

The record that follows has no IC50 shown yet.
Record NS(=O)(=O)c1ccc(Cc2c(-c3ccc(F)c(-c4ccc(Cl)cc4)c3)nn(-c3nc(C(=O)O)cs3)c2CC2CC2)cc1F [Compound 139] . Reported IC50: < 100 nM

###

- systemName: UniProtKB P00338
- experimentSummary: human LDHA primary biochemical assay
- measurementSetup: biochemical LDHA inhibitory activity, assay of Example 1; activity level classes defined in nM
quantityKind: IC50

>>> df
                                   compound  quantitykind  observedmeasurement
0  Cc1ccc(C#Cc2cccc(-c3nn(-c4nc(C(=O)O)cs4)c(CCC4CC4)c3Cc3ccc(S(N)(=O)=O)c(F)c3)c2)s1 [Compound 115]          IC50             < 100 nM
1  CC(C)(C)c1cccc(-c2cc(-c3nn(-c4nc(C(=O)O)cs4)c(CC4CC4)c3Cc3ccc(S(N)(=O)=O)c(F)c3)ccc2F)c1 [Compound 192]          IC50       100 to 1000 nM
2  CC(C)Cc1ccc(-c2cccc(-c3nn(-c4nc(C(=O)O)cs4)c(CC4CC4)c3Cc3ccc(S(N)(=O)=O)c(F)c3)c2)cc1 [Compound 226]          IC50       100 to 1000 nM
3  NS(=O)(=O)c1ccc(Cc2c(-c3ccc(F)c(C4=CCC(F)(F)CC4)c3)nn(-c3nc(C(=O)O)cs3)c2CC2CC2)cc1F [Compound 107]          IC50             < 100 nM
4  NS(=O)(=O)c1ccc(Cc2c(-c3ccc(F)c(C4=Cc5ccccc5C4)c3)nn(-c3nc(C(=O)O)cs3)c2CC2CC2)cc1F [Compound 105]          IC50             < 100 nM

The record that follows has no IC50 shown yet.
Readout IC50 for Cc1ncc(-c2cc(-c3nn(-c4nc(C(=O)O)cs4)c(CC4CC4)c3Cc3ccc(S(N)(=O)=O)c(F)c3)ccc2F)[nH]1 [Compound 161] , test system UniProtKB P00338, was < 100 nM

###

Below, each entry is listed alongside its reported IC50.
- systemName: Human LDHA (Homo sapiens (Human), UniProt P00338)
- experimentSummary: human LDHA primary biochemical assay
- measurementSetup: biochemical LDHA inhibitory activity, assay of Example 1; activity level classes defined in nM

Here are 6 molecules together with their reported answers.
molecule	systemName	quantityKind	observedMeasurement
CCc1cc(-c2cc(-c3nn(-c4nc(C(=O)O)cs4)c(CC4CC4)c3Cc3ccc(S(N)(=O)=O)c(F)c3)ccc2F)ccc1OC [Compound 186]	Human LDHA (Homo sapiens (Human), UniProt P00338)	IC50	100 to 1000 nM
NS(=O)(=O)c1ccc(Cc2c(-c3cccc(-c4ccc5c(c4)CCCC5)c3)nn(-c3nc(C(=O)O)cs3)c2CC2CC2)cc1F [Compound 174]	Human LDHA (Homo sapiens (Human), UniProt P00338)	IC50	100 to 1000 nM
NS(=O)(=O)c1ccc(Cc2c(-c3cccc(-c4ccc(C5CCC5)cc4)c3)nn(-c3nc(C(=O)O)cs3)c2CC2CC2)cc1F [Compound 184]	Human LDHA (Homo sapiens (Human), UniProt P00338)	IC50	100 to 1000 nM
NS(=O)(=O)c1ccc(Cc2c(-c3cccc(-c4ccc(C5CC5)cc4)c3)nn(-c3nc(C(=O)O)cs3)c2CC2CC2)cc1F [Compound 183]	Human LDHA (Homo sapiens (Human), UniProt P00338)	IC50	< 100 nM
CC(C)(C)c1ccc(C#Cc2cc(-c3nn(-c4nc(C(=O)O)cs4)c(CC4CC4)c3Cc3ccc(S(N)(=O)=O)c(F)c3)ccc2F)s1 [Compound 110]	Human LDHA (Homo sapiens (Human), UniProt P00338)	IC50	100 to 1000 nM
CC(C)N1CC2(CN(c3cc(-c4nn(-c5nc(C(=O)O)cs5)c(CC5CC5)c4Cc4ccc(S(N)(=O)=O)c(F)c4)ccc3F)C2)C1 [Compound 158]	Human LDHA (Homo sapiens (Human), UniProt P00338)	IC50	< 100 nM

Record Cc1cc(-c2cc(-c3nn(-c4nc(C(=O)O)cs4)c(CC4CC4)c3Cc3ccc(S(N)(=O)=O)c(F)c3)ccc2F)ccc1Cl [Compound 185] . Reported IC50: 100 to 1000 nM

Record Cc1ccc(C#Cc2cccc(-c3nn(-c4nc(C(=O)O)cs4)c(C(C)C4CC4)c3Cc3ccc([S+](N)(=O)[O-])c(F)c3)c2)s1 (stereo not drawn) [Compound 116] . Reported IC50: 100 to 1000 nM

Record Cc1ccc(C#Cc2cccc(-c3nn(-c4nc(C(=O)O)cs4)c(CCCC4CC4)c3Cc3ccc(S(N)(=O)=O)c(F)c3)c2)s1 [Compound 248] . Reported IC50: 100 to 1000 nM

Record Cc1cc(-c2cc(-c3nn(-c4nc(C(=O)O)cs4)c(CC4CC4)c3Cc3ccc(S(N)(=O)=O)c(F)c3)ccc2F)ccc1C(C)C [Compound 213] . Reported IC50: < 100 nM

Record NS(=O)(=O)c1ccc(Cc2c(-c3ccc(F)c(-c4cc(Cl)cc(Cl)c4)c3)nn(-c3nc(C(=O)O)cs3)c2CC2CC2)cc1F [Compound 157] . Reported IC50: 100 to 1000 nM

Record N#Cc1ccc(-c2cc(-c3nn(-c4nc(C(=O)O)cs4)c(CC4CC4)c3Cc3ccc(S(N)(=O)=O)c(F)c3)ccc2F)cc1 [Compound 201] . Reported IC50: < 100 nM

###

- systemName: Human LDHA (Homo sapiens (Human))
- experimentSummary: human LDHA primary biochemical assay
- measurementSetup: biochemical LDHA inhibitory activity, assay of Example 1; activity level classes defined in nM
Below, each entry is listed alongside its reported IC50.

Here are 3 compounds together with their reported answers.
>>> df
                          structureassmiles  observedmeasurement
0  NS(=O)(=O)c1ccc(Cc2c(-c3ccc(F)c(-c4ncc[nH]4)c3)nn(-c3nc(C(=O)O)cs3)c2CC2CC2)cc1F             < 100 nM
1  NS(=O)(=O)c1ccc(Cc2c(-c3cccc(-c4nc5ccccc5[nH]4)c3)nn(-c3nc(C(=O)O)cs3)c2CC2CC2)cc1F             < 100 nM
2  NS(=O)(=O)c1ccc(Cc2c(-c3ccc(F)c(-c4ccc(C(F)(F)F)cc4)c3)nn(-c3nc(C(=O)O)cs3)c2CC2CC2)cc1F             < 100 nM

Record CC(C)(C)c1ccc(-c2cc(-c3nn(-c4nc(C(=O)O)cs4)c(CC4CC4)c3Cc3ccc(S(N)(=O)=O)c(F)c3)ccc2F)cc1 . Reported IC50: 100 to 1000 nM

Record NS(=O)(=O)c1ccc(Cc2c(-c3cccc(-c4ccc(C(F)(F)C(F)(F)F)cc4)c3)nn(-c3nc(C(=O)O)cs3)c2CCC2CC2)cc1F . Reported IC50: 100 to 1000 nM

Record Cc1cc(C#Cc2cccc(-c3nn(-c4nc(C(=O)O)cs4)c(CC4CC4)c3Cc3ccc(S(N)(=O)=O)c(F)c3)c2)cs1 . Reported IC50: < 100 nM

###

- systemName: Human LDHA (Homo sapiens (Human))
- experimentSummary: human LDHA primary biochemical assay
- measurementSetup: biochemical LDHA inhibitory activity, assay of Example 1; activity level classes defined in nM
quantityKind: IC50

Record NS(=O)(=O)c1ccc(Cc2c(-c3ccc(F)c(C4=CCCCC4)c3)nn(-c3nc(C(=O)O)cs3)c2CC2CC2)cc1F [Compound 146] . Reported IC50: < 100 nM

Record Cc1ccc(C#Cc2cccc(-c3nn(-c4nc(CO)cs4)c(CC4CC4)c3Cc3ccc(S(N)(=O)=O)c(F)c3)c2)s1 [Compound 181] . Reported IC50: > 57000 nM

Record Cc1ccc(C#Cc2cccc(-c3nn(-c4nc(C(=O)NS(C)(=O)=O)cs4)c(CC4CC4)c3Cc3ccc(S(N)(=O)=O)c(F)c3)c2)s1 [Compound 180] . Reported IC50: 1000 to 57000 nM

Record Cc1cnc(C#Cc2cc(-c3nn(-c4nc(C(=O)O)cs4)c(CC4CC4)c3Cc3ccc(S(N)(=O)=O)c(F)c3)ccc2F)s1 [Compound 114] . Reported IC50: < 100 nM

Record NS(=O)(=O)c1ccc(Cc2c(-c3cccc(C#Cc4ccc(C5CCC5)s4)c3)nn(-c3nc(C(=O)O)cs3)c2CC2CC2)cc1F [Compound 245] . Reported IC50: 100 to 1000 nM

Record Cc1ccc(-c2cccc(-c3nn(-c4nc(C(=O)O)cs4)c(CC4CC4)c3Cc3ccc(S(N)(=O)=O)c(F)c3)c2)nc1 [Compound 203] . Reported IC50: < 100 nM

Record NS(=O)(=O)c1ccc(Cc2c(-c3cccc(C#Cc4ccc(C5CCC5)s4)c3)nn(-c3nc(C(=O)O)cs3)c2CCC2CC2)cc1F [Compound 246] . Reported IC50: 100 to 1000 nM

Record CC(C)c1ccc(-c2cccc(-c3nn(-c4nc(C(=O)O)cs4)c(CC4CC4)c3Cc3ccc(S(N)(=O)=O)c(F)c3)c2)cc1F [Compound 230] . Reported IC50: 100 to 1000 nM

Record Cc1ccc(C#Cc2cccc(-c3nn(-c4nc(C(=O)NC#N)cs4)c(CC4CC4)c3Cc3ccc(S(N)(=O)=O)c(F)c3)c2)s1 [Compound 179] . Reported IC50: 1000 to 57000 nM

Record NS(=O)(=O)c1ccc(Cc2c(-c3cccc(-c4ccc(C5CC5)c(F)c4)c3)nn(-c3nc(C(=O)O)cs3)c2CC2CC2)cc1F [Compound 171] . Reported IC50: 1000 to 57000 nM

Record Cc1ccc(C2CC2c2cccc(-c3nn(-c4nc(C(=O)O)cs4)c(CC4CC4)c3Cc3ccc(S(N)(=O)=O)c(F)c3)c2)s1 (stereo not shown) [Compound 130] . Reported IC50: < 100 nM

Record Cc1ccc(C#Cc2cccc(-c3nn(-c4nc(C(=O)O)cs4)c(C4CC45CC5)c3Cc3ccc(S(N)(=O)=O)c(F)c3)c2)s1 (stereo not shown) [Compound 131] . Reported IC50: < 100 nM

Record Cc1ccc(C#Cc2cccc(-c3nn(-c4nc(C(=O)O)co4)c(CC4CC4)c3Cc3ccc(S(N)(=O)=O)c(F)c3)c2)s1 [Compound 247] . Reported IC50: < 100 nM
